Attribute: IC50
target: ADP-ribosyl cyclase/cyclic ADP-ribose hydrolase (Blood fluke, UniProt Q32TF5); test: NAD glycohydrolase assay; details: pH 7.4; 37 °C
Sequence (Q32TF5 whole entry): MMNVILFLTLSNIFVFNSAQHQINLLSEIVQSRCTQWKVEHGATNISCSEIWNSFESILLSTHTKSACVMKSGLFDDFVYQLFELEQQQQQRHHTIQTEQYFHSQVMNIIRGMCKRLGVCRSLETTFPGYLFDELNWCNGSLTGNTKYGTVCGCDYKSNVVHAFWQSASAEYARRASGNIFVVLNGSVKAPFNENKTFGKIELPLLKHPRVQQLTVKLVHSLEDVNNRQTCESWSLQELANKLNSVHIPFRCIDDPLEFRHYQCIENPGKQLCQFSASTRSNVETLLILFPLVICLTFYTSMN
Supply the numeric figure in µM, leaving out any unit text.

[
  {
    "SMILES_REPR": "Cc1occc1C(=O)N/N=C/c1cc(Cl)ccc1O",
    "IC50 / µM": 0.126
  }
]

Now for the compound whose IC50 we want.
Record "Cc1occc1C(=O)N/N=C/c1ccc(O)c(O)c1" . Reported IC50: 69
